System: A549
protocol_description: Antiproliferative activity against human A549 cells after 72 hrs
Type: functional, cell-based
recorded_conditions: A549, 72 h
Attribute: log10 of IC50
quantity_name: log10 of IC50 (log10 of the value in nM)

molecule	log10 of IC50
C/C(=C\c1csc(C)n1)[C@@H]1C[C@@H]2OC(c3ccc(C(C)C)cc3)=N[C@H]2CCC[C@H](C)[C@H](O)[C@@H](C)C(=O)C(C)(C)[C@@H](O)CC(=O)O1	3.69
CCc1ccc(C2=N[C@H]3CCC[C@H](C)[C@H](O)[C@@H](C)C(=O)C(C)(C)[C@@H](O)CC(=O)O[C@H](/C(C)=C/c4csc(C)n4)C[C@@H]3O2)cc1	2.58
C/C(=C\c1csc(C)n1)[C@@H]1C[C@@H]2OC(c3ccccc3)=N[C@H]2CCC[C@H](C)[C@H](O)[C@@H](C)C(=O)C(C)(C)[C@@H](O)CC(=O)O1	1.21
C/C(=C\c1csc(C)n1)[C@@H]1C[C@@H]2OC(c3cccnc3)=N[C@H]2CCC[C@H](C)[C@H](O)[C@@H](C)C(=O)C(C)(C)[C@@H](O)CC(=O)O1	-0.04
C/C(=C\c1csc(C)n1)[C@@H]1CC2O[C@@H]2CCC[C@H](C)[C@H](O)[C@@H](C)C(=O)C(C)(C)[C@@H](O)CC(=O)O1 (single isomer, unassigned)	0.34
C/C(=C\c1csc(C)n1)[C@@H]1C[C@@H]2OC(c3ccc(C)cc3)=N[C@H]2CCC[C@H](C)[C@H](O)[C@@H](C)C(=O)C(C)(C)[C@@H](O)CC(=O)O1	0.46

* * *

Tested on: Tubulin (Sus scrofa)
protocol_description: Induction of porcine brain tubulin polymerization at 2 uM relative to 25 uM epothilone B
Assign class by Activity: not lower than 60% means fulfilled; lower than 60% means not fulfilled.

compound	class
C/C(=C\c1csc(C)n1)[C@@H]1C[C@@H]2OC(c3ccc(C(C)C)cc3)=N[C@H]2CCC[C@H](C)[C@H](O)[C@@H](C)C(=O)C(C)(C)[C@@H](O)CC(=O)O1	not fulfilled
C/C(=C\c1csc(C)n1)[C@@H]1C[C@@H]2OC(c3ccccc3)=N[C@H]2CCC[C@H](C)[C@H](O)[C@@H](C)C(=O)C(C)(C)[C@@H](O)CC(=O)O1	fulfilled
C/C(=C\c1csc(C)n1)[C@@H]1CC2O[C@@H]2CCC[C@H](C)[C@H](O)[C@@H](C)C(=O)C(C)(C)[C@@H](O)CC(=O)O1 (single isomer, unassigned)	fulfilled
C/C(=C\c1csc(C)n1)[C@@H]1C[C@@H]2OC(c3cccnc3)=N[C@H]2CCC[C@H](C)[C@H](O)[C@@H](C)C(=O)C(C)(C)[C@@H](O)CC(=O)O1	fulfilled
C/C(=C\c1csc(C)n1)[C@@H]1C[C@@H]2OC(c3ccc(C)cc3)=N[C@H]2CCC[C@H](C)[C@H](O)[C@@H](C)C(=O)C(C)(C)[C@@H](O)CC(=O)O1	fulfilled
CCc1ccc(C2=N[C@H]3CCC[C@H](C)[C@H](O)[C@@H](C)C(=O)C(C)(C)[C@@H](O)CC(=O)O[C@H](/C(C)=C/c4csc(C)n4)C[C@@H]3O2)cc1	not fulfilled
C/C(=C\c1csc(C)n1)[C@@H]1C[C@@H]2OC(c3ccc(C(C)(C)C)cc3)=N[C@H]2CCC[C@H](C)[C@H](O)[C@@H](C)C(=O)C(C)(C)[C@@H](O)CC(=O)O1	not fulfilled
